Entries and their measured self-cleavage follow.
B1: OR4K15 (parent)
chain: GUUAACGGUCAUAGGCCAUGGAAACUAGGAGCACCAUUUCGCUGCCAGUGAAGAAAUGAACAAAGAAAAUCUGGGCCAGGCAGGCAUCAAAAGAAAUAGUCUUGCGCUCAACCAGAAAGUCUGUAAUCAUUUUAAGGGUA

Variants of: B1
Experiment: self-cleavage, relative activity (ratio to wild type); higher = more cleavage; in vitro, sequencing; the parent is a self-cleaving ribozyme

See these solved cases before continuing.
1) GUUAACGGUCAUAGGCCAUGGAAACUAGGAGCACCAUUACGCUGCCAGUGUAGAAAUGAACAAAGAAAAUCUGGGCCAGGCAGGCAUCAAAAGAAAUAGUCUUGCGCUCAACCAGAAAGUCUGUAAUCAUUUUAAGGGUA [U39A A51U] | 1.74
2) GUUAACGGUCAUAGGCCAUGGAAACUAGGAGCACCAUUUCGCUGCCAGUGAAGAAAUGAACAAAUAAAAUCUGGGCCAGGCAGGCAUCAAAAGAAAUAGUCUUGCGCUCAACCAGAAAGUCUGUAAUCAUUUUAAGGAUA [G65U G138A] | 1.24
3) GUUAACGGUCAUAGGCCAUGGAAACUAGGAGCACCAUUUCUCUGCCAGUGAGGAAAUGAACAAAGAAAAUCUGGGCCAGGCAGGCAUCAAAAGAAAUAGUCUUGCGCUCAACCAGAAAGUCUGUAAUCAUUUUAAGGGUA [G41U A52G] | 1.47

query: Which value of self-cleavage has been reported for GUUAACGGUCAUAGGCCAUGGAAACUAGGAGCACCAUUUCGCUGCCAGCGAAGAAAUGAACAAAGAAAAUCUGGGCCAGGCAGGCAUCAAAAGAAAAAGUCUUGCGCUCAACCAGAAAGUCUGUAAUCAUUUUAAGGGUA [U49C U97A] in the records?
result: 2.12

query: Which value of self-cleavage has been reported for GUUAACGGUCAUAGGCCAUGGAAACUAGGAGCACCAUUUCGCUGCCAGUGAAGGAAUGAACAAAGAAACUCUGGGCCAGGCAGGCAUCAAAAGAAAUAGUCUUGCGCUCAACCAGAAAGUCUGUAAUCAUUUUAAGGGUA [A54G A69C] in the records?
result: 1.39

query: Which value of self-cleavage has been reported for GUUAACGGUCAUAGGCCAUGGAAACUAGGAGCACCAUUUCGCCGCCAGUGAAGAAAUGAACAAAGAAAAUCUGGGCCAGGCAGGCAUCAUAAGAAAUAGUCUUGCGCUCAACCAGAAAGUCUGUAAUCAUUUUAAGGGUA [U43C A90U] in the records?
result: 1.83
